Taken from patent US6503749B2.

# ASSAY_SYSTEM: APAT (acetyl-coenzyme A pregnenolone acetyltransferase) (Saccharomyces cerevisiae, UniProt P53296)
# Construct: the semi-purified APAT transfers the acetate on 3β-ol, delta^4 or delta^5-steroids; endogenous in cells; host or cells: S. cerevisiae strain TGY73.4; endogenous enzyme purified in house from cell lysate (ZnCl2 precipitation, DEAE-Sephacel, Phenyl-Sepharose, Q-Sepharose, cholate-Sepharose)
# Sequence (P53296 whole entry): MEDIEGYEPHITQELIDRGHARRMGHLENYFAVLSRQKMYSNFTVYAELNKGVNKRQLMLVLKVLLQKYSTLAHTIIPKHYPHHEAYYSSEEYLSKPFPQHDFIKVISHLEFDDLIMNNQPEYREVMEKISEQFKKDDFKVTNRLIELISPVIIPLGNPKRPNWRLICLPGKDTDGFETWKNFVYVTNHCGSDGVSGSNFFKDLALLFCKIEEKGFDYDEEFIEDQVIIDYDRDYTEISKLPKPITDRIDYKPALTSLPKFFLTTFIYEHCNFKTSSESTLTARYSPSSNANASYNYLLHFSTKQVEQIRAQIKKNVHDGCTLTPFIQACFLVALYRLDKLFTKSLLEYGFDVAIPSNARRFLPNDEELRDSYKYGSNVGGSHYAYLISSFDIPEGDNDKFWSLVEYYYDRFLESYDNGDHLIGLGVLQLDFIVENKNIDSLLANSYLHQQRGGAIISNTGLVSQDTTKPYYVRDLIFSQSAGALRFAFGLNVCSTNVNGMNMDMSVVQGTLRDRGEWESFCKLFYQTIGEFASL
# ASSAY_PROTOCOL: Test of APAT enzyme activity (semi-purified APAT; substrate specificity and inhibition)
# Type: biochemical, S. cerevisiae
# MEASUREMENT_PARAMETERS: 30 μM of each steroid tested and 100 μM of [3H]acetyl-CoA; semi-purified APAT
For each record, write down the corresponding Relative activity (%), Substrate a).
Form entry: value (%) — number only.

Respond only with Relative activity (%), Substrate a) recorded for "CC(=O)[C@H]1CC[C@H]2[C@@H]3CC[C@@H]4C[C@@H](O)CC[C@]4(C)[C@H]3CC[C@]12C"
1.8

Respond only with Relative activity (%), Substrate a) recorded for "CC(C)[C@@H](C)/C=C/[C@@H](C)[C@H]1CC[C@H]2C3=CC=C4C[C@@H](O)CC[C@]4(C)[C@H]3CC[C@]12C"
0.4

Respond only with Relative activity (%), Substrate a) recorded for CC(=O)[C@@]1(O)CC[C@H]2[C@@H]3CC=C4C[C@@H](O)CC[C@]4(C)[C@H]3CC[C@@]21C [17α-OH pregnenolone, 17α-hydroxypregnenolone]
89

Respond only with Relative activity (%), Substrate a) recorded for "C[C@]12CC[C@@H]3c4ccc(O)cc4CC[C@H]3[C@@H]1CC[C@@H]2O"
5

Respond only with Relative activity (%), Substrate a) recorded for "CC(=O)[C@H]1CC[C@H]2[C@@H]3CC=C4C[C@@H](O)CC[C@]4(C)[C@H]3CC[C@]12C"
100

Respond only with Relative activity (%), Substrate a) recorded for "CC(=O)[C@H]1CC[C@H]2[C@@H]3CCC4=C[C@@H](O)CC[C@]4(C)[C@H]3CC[C@]12C"
70
